# Test system: CSES2-SO2/3 ES-derived endodermal progenitors
# Experimental Details: CellTiter-Glo counter-screen, endodermal progenitors
# Type: cell-based
# Test Parameters: Homo sapiens; at 20 μM
Quantity Kind: inhibition at 20 µM

In [3]: df
Out[3]:
                                   compound        quantity_kind  value
0  C(=N\C1CCC(CC2CCCCC2)CC1)/OC1CCOC1 (stereo not shown)  inhibition at 20 µM   2.1%
1       Nc1cc(N)cc(COc2ccc(-c3ccccc3)cc2)c1  inhibition at 20 µM  -9.2%
2  O=C(NNc1ccccc1)c1ccncc1 [PluriSIn #1, isonicotinic acid N′-phenylhydrazide]  inhibition at 20 µM   6.5%
3        O=C(Nc1ccccc1)n1cc(F)c(=O)[nH]c1=O  inhibition at 20 µM  -8.3%

Sourced from patent US20180153830A1
